Molecular target: S100A11
Assay: FP; direct
outcome-measure: pKd
Lab note: report pKd as minus log10 of the concentration in molar units, number only.

Reference set, count: 2
[[record]]
binder = "RKLQRELEDATETADAMNREVSSLKNKLRRGDLPFVVPRRMARK [NMIIA (1894-1937) peptide]"
outcome_measure = "pKd"
test_value = 4.31

[[record]]
binder = "VLQTWLQDLLRRGLVRAAQ [TRPM4 (129-147) peptide]"
outcome_measure = "pKd"
test_value = 5.62


Consider the record given below.
Input: What does the record list as pKd for RRLLFYKYVYKR [NCX1 (254-265) peptide] ?
Output: 4.28
